Target: T1, Human ST2-his (human, UniProt Q01638-2 19-328, limits assumed)
T1 construct: Expressed in CHO-K1; The printed range starts at Met1; also called human ST2 fused with a 6-histidine tag at the C-terminus
T1 sequence: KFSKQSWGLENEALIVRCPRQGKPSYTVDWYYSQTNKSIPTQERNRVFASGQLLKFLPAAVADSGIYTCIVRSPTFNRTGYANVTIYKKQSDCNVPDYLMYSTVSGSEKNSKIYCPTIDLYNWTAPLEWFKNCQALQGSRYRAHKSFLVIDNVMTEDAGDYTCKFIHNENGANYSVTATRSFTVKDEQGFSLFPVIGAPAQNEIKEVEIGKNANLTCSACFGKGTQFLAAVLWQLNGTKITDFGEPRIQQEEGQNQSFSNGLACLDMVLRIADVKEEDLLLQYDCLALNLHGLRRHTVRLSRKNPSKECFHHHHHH
Experiment: SPR Biacore X100, antibody captured on protein A chip, human ST2-his injected, pH 7.4
Recorded endpoint: pKd
pKd field: float, defined as -log10 of concentration (mol/L).

Field: example entries. Status: answers known.
5888-153-H3L1 (antibody, human IgG4 S228P, kappa, V domains shown, Humanized antibody) VH: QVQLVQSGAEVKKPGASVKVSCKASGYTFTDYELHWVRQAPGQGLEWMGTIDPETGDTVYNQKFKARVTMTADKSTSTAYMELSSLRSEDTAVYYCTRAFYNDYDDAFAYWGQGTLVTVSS VL: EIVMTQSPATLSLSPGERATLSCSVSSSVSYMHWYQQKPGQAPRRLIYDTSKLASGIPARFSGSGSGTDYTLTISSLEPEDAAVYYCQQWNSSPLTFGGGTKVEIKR; 10.01
5888-153-H3L2 (antibody, human IgG4 S228P, kappa, V domains shown, Humanized antibody) VH: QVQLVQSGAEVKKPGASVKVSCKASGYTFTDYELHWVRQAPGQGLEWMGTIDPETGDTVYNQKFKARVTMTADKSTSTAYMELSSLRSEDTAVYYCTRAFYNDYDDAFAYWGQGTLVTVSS VL: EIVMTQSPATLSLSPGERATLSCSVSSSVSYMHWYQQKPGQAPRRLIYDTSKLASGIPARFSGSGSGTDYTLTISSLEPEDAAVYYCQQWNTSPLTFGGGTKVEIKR; 9.98

Any idea what its pKd is? The binder is 5888-379-H1L0 (antibody, human IgG4 S228P, kappa, V domains shown, Humanized antibody) VH: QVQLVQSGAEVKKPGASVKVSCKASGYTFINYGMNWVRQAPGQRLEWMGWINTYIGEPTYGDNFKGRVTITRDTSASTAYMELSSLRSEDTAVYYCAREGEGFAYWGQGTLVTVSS VL: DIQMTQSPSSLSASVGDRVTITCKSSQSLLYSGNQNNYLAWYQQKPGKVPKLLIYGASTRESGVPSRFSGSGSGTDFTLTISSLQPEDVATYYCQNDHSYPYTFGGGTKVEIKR 9.34
